Would you mind telling me the reported growth inhibition of each entry?
- ASSAY_COMMENT: NCI Yeast Anticancer Drug Screen. Data for the cln2 rad14 strain (AID 165);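 also: 0% = growth equal to vehicle treated cultures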
- PROTOCOL_CONDITIONS: S. cerevisiae cln2 rad14 strain, at 50.0 µM, hits give high values
This is part of a sample that, as a whole, favours compounds with a hit. Of some 79,000 tested, about 15% had one in any assay.
// units = %; emit number, no label

Looking up COc1ccc(C2c3cc4c(cc3OC(C)(OC)C2C)OCO4)c(OC)c1OC (stereo not given) , I see its growth inhibition listed as -19

Looking up CNC(=O)SCC(N)C(=O)O (stereo not given) , I see its growth inhibition listed as -16.4

Looking up "CC(C)(C)OC(=O)c1cccc(C(=O)OC(C)(C)C)c1" , I see its growth inhibition listed as -9.7

Looking up "CC1=NN(c2ccccc2)C(=O)/C1=C(\[O-])c1ccccc1.CC1=NN(c2ccccc2)C(=O)/C1=C(\[O-])c1ccccc1.CC1=NN(c2ccccc2)C(=O)/C1=C(\[O-])c1ccccc1.[Fe+3]" , I see its growth inhibition listed as -16.7

Looking up "N#C/C(=C\c1ccc(C#N)cc1)C(=O)O" , I see its growth inhibition listed as 2.75

====

- ASSAY_COMMENT: NCI Yeast Anticancer Drug Screen. Data for the bub3 strain (AID 167)
- PROTOCOL_CONDITIONS: S. cerevisiae bub3 mutant strain, at 50.0 µM, hits give high values
Compounds without any hit were thinned out: in the full panel of roughly 79,000, 15% have a hit.
Would you mind telling me the reported growth inhibition of each entry?
// units = %; emit number, no label

Looking up Nc1nc(Nc2ccccc2)c2ncn(C3OC(CO)C(O)C3O)c2n1 (stereo not given) , I see its growth inhibition listed as 3.6

Looking up CCCCCC(O)c1ccc2c(c1)OCO2 (stereo not given) , I see its growth inhibition listed as -8.85

Looking up "Nc1ncc2c(n1)CSCC2=O" , I see its growth inhibition listed as 16.9

Looking up "CC(C)NC(c1ccccc1)c1ccccc1" , I see its growth inhibition listed as 1.6

Looking up "CC(C)(O)c1cc(F)ccc1N" , I see its growth inhibition listed as 29.6

Looking up O=C(c1ccccc1)N1OC2C=CC1CC2 (stereo not given) , I see its growth inhibition listed as -2.1

Looking up "CCC(=O)Nc1cc([N+](=O)[O-])cc([N+](=O)[O-])c1" , I see its growth inhibition listed as -36.9

Looking up "CC(=O)c1c(-c2ccc(Cl)cc2)c(-c2ccc(Cl)cc2)nn(CCN)c1=O" , I see its growth inhibition listed as 42.7

Looking up "Cn1c(=O)c2c(nc(NCCO)n2Cc2ccccc2)n(C)c1=O" , I see its growth inhibition listed as 8.45

Looking up CCc1ccccc1NC(=O)C(=O)C(C#N)c1ccccc1Cl (stereo not given) , I see its growth inhibition listed as 6.3

Looking up "NC(=O)c1cc(Cl)ccc1O" , I see its growth inhibition listed as -4.05

Looking up COC(=O)/C=C(/C=C1/C(C#N)=C(N)N(c2ccc(Cl)cc2)C1(C)/C(=C/C(=O)OC)C(=O)OC)C(=O)OC (stereo not given) , I see its growth inhibition listed as 21.8

Looking up "CCc1n[nH]c(=O)n1/N=C/c1ccccc1O" , I see its growth inhibition listed as -0.35

Looking up "COc1cc(C)c([N+](=O)[O-])cc1[N+](=O)[O-]" , I see its growth inhibition listed as -10.1

Looking up "COc1nc2ccccc2nc1OC" , I see its growth inhibition listed as 4.45

Looking up "O=C(/C=C/c1ccc2c(c1)OCO2)CC(=O)/C=C/c1ccc2c(c1)OCO2" , I see its growth inhibition listed as -4.3

Looking up "O=[N+]([O-])c1ccc(-c2noc(-c3ccccc3)c2C2=NCCN2)cc1" , I see its growth inhibition listed as 7.8

Looking up "Cc1cc(NS(=O)(=O)c2ccc(NC(=O)c3cccc4c(N)c5ccccc5nc34)cc2)no1" , I see its growth inhibition listed as 3.85

Looking up "Cc1nsc2[nH]c(=O)n(Nc3ccc(O)cc3)c(=O)c12" , I see its growth inhibition listed as 5

Looking up CC1C2CCC3(CCC4C5(C)CCCC4(CN(CCO)C5)C3C2)C1O (stereo not given) , I see its growth inhibition listed as -2.4

Looking up C=CC12COC(=O)CC1CCC(=O)C2 (stereo not given) , I see its growth inhibition listed as 13.4

Looking up "C1CCC(C2CCCC2)CC1" , I see its growth inhibition listed as -17.2

Looking up "O=C(NNC(=O)c1ccc2ccccc2c1)c1cccc(Br)c1" , I see its growth inhibition listed as -5.6

Looking up "CC(=O)C(Cc1cccc([N+](=O)[O-])c1)Cc1cccc([N+](=O)[O-])c1" , I see its growth inhibition listed as 15.8

Looking up CC(Sc1ncnc2[nH]ncc12)C(N)=O (stereo not given) , I see its growth inhibition listed as 5
